Data credit: patent US10174030B2

biological target: LSD1 (Homo sapiens (Human), UniProt O60341); test: biochemical
assay-metric: IC50

Query: What value of IC50 has been reported for the following compound? COc1ccc(CC2(CN[C@@H]3C[C@H]3c3ccccc3)CCN(CC3(C(=O)O)CC3)CC2)cn1
Reply: < 100 nM
